Values compiled from ChEMBL document CHEMBL5579877.

# ASSAY_DETAILS: Oral bioavailability in ICR mouse at 5 mg/kg by LC-MS/MS analysis
# Format: ADME, organism-based
# CONDITION_INFO: in vivo
MEASUREMENT_KIND: bioavailability (%)
Numeric answer only, unit % assumed.

O=C(O)c1ccc2nc(CN3CCC(c4cccc(OCc5ccc(C6COC6)cc5F)n4)CC3)n(C[C@@H]3CCO3)c2c1: 53.1

Task: What value of bioavailability has been reported for the following compound? N#Cc1ccc(COc2cccc(C3CCN(Cc4nc5ccc(C(=O)O)cc5n4C[C@@H]4CCO4)CC3)n2)c(F)c1
Result: 54.2

---

# SYSTEM_UNDER_TEST: Cytochrome P450 2D6 (Homo sapiens)
# Sequence (P10635 whole entry): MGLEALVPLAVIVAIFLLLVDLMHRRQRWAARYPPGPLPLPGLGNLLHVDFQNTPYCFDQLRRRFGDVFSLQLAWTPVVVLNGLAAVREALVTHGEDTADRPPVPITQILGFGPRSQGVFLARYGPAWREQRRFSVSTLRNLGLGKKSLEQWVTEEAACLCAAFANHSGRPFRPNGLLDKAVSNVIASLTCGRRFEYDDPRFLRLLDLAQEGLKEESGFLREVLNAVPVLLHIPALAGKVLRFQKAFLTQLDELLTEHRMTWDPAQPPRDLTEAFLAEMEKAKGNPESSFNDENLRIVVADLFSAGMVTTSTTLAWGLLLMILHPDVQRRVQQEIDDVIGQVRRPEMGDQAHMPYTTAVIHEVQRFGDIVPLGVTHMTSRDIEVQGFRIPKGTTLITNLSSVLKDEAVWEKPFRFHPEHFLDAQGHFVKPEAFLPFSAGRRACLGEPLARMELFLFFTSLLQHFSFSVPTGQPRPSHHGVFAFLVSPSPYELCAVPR
MEASUREMENT_KIND: IC50

Task: // fetch Cytochrome P450 2D6 (Homo sapiens) IC50 for N#Cc1ccc(COc2cccc(C3CCN(Cc4nc5ccc(C(=O)O)cc5n4C[C@@H]4CCO4)CC3)n2)c(F)c1
Result: > 10 µM
